What inhibition was measured for each of the following?
# measured.target: Serine/threonine-protein kinase PAK 2 (Homo sapiens) (UniProt Q13177);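 also: reported values are mean inhibition of PAK2, averaged over measurements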
# Sequence (Q13177 whole entry): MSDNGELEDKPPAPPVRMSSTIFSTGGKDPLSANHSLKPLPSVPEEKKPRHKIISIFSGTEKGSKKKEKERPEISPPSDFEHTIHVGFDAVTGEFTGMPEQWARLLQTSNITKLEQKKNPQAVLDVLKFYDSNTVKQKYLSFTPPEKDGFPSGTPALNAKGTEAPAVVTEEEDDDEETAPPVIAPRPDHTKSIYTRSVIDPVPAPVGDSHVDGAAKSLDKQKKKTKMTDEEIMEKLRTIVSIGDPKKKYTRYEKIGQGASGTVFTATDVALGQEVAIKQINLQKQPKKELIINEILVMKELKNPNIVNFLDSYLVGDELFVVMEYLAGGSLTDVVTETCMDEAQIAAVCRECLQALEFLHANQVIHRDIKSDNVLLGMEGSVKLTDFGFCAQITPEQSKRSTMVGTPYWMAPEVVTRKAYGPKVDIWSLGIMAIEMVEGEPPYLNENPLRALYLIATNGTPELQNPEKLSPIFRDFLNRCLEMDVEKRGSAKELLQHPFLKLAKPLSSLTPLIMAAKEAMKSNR
# measurement.setup: at 1 µM
Numeric answer only, unit % assumed.

Serine/threonine-protein kinase PAK 2 (Homo sapiens) (UniProt Q13177) inhibition of CN1CCC(n2cnc(-c3ccc(F)cc3)c2-c2ccnc(N)n2)CC1 is -0.19

The molecule c1ccc(-c2nc3n(c2-c2ccc4c(c2)OCO4)CCC3)nc1 , tested on Serine/threonine-protein kinase PAK 2 (Homo sapiens) (UniProt Q13177), showed inhibition of -0.63

Observed inhibition, Serine/threonine-protein kinase PAK 2 (Homo sapiens) (UniProt Q13177), CC(C)(CO)CNC(=O)c1ccc2c(c1)/C(=N/Nc1ccc(S(N)(=O)=O)cc1)C(=O)N2 : -0.42

Item: CCc1nn2ncccc2c1-c1ccnc(NC2CC2)n1 | System: Serine/threonine-protein kinase PAK 2 (Homo sapiens) (UniProt Q13177) | inhibition: 1.62

For N#Cc1c(NC(=O)CN2CCOCC2)sc2c1CCCC2 on Serine/threonine-protein kinase PAK 2 (Homo sapiens) (UniProt Q13177), measured inhibition was 0.76

# inhibition measured on Serine/threonine-protein kinase PAK 2 (Homo sapiens) (UniProt Q13177) for item CNC(=O)c1cncc(/C=C/c2ccccc2Cl)c1 = -0.55

# lookup: COc1cc(N2CCN(C(C)C)CC2)ccc1Nc1nc(Nc2ccc(F)cc2C(N)=O)c2cc[nH]c2n1 on Serine/threonine-protein kinase PAK 2 (Homo sapiens) (UniProt Q13177), inhibition = 2.24

The measured inhibition that CS(=O)(=O)CCNCc1ccc(-c2ccc3ncnc(Nc4ccc(OCc5ccccc5)c(C(F)(F)F)c4)c3c2)o1 showed for Serine/threonine-protein kinase PAK 2 (Homo sapiens) (UniProt Q13177) is 1.28

Query Nc1ncc(-c2cccc(S(N)(=O)=O)c2)c2scc(-c3ccc(F)c(Cl)c3)c12 on Serine/threonine-protein kinase PAK 2 (Homo sapiens) (UniProt Q13177); inhibition returned: 1.78

For the molecule NS(=O)(=O)c1ccc(Nc2ncc(-c3ccccc3)o2)cc1 , the measured inhibition on Serine/threonine-protein kinase PAK 2 (Homo sapiens) (UniProt Q13177) was 1.78

Bench note, Serine/threonine-protein kinase PAK 2 (Homo sapiens) (UniProt Q13177): FC(F)(F)c1cccc(-c2nn3ncccc3c2-c2ccnc(Nc3ccc4c(c3)OCCO4)n2)c1 , inhibition reads 1.43

Response field inhibition (Serine/threonine-protein kinase PAK 2 (Homo sapiens) (UniProt Q13177)) for item Fc1ccc(-c2nn3ncccc3c2-c2ccnc(Nc3ccc4c(c3)OCCO4)n2)cc1 : 2.5

Let me check: CN(C)CCOc1ccc(-c2nc(-c3ccncc3)c(-c3ccc4c(c3)CC/C4=N\O)[nH]2)cc1 , system Serine/threonine-protein kinase PAK 2 (Homo sapiens) (UniProt Q13177), measured inhibition is 2.42

Observed inhibition on Serine/threonine-protein kinase PAK 2 (Homo sapiens) (UniProt Q13177), entry CCn1c(-c2nonc2N)nc2c(C#CC(C)(C)O)nc(OC[C@H](N)c3ccccc3)cc21 , equals 10.9

###

# measured.target: Serine/threonine-protein kinase Chk2 (Homo sapiens);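 also: reported value is the mean inhibition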
# measurement.setup: at 1 µM
measured.quantity: inhibition (%)
Form entry: value (%) — number only.

Record summary for Fc1ccc(-c2nn3ccccc3c2-c2ccncc2)cc1 : reported inhibition = 0.19

Sure, the documented inhibition for FC(F)(F)c1cccc(-c2nn3ncccc3c2-c2ccnc(Nc3ccc4c(c3)OCCO4)n2)c1 is 3.43

In plain terms, c1cc(-c2cnn3nc(N4CCOCC4)ccc23)nc(NC2CC2)n1 has a documented inhibition of 7.4

Recorded inhibition (compound Cc1cccc2c1NC(=O)/C2=N\Nc1ccc(S(N)(=O)=O)cc1 ): 2.64

Reported inhibition ( Nc1nc(-c2ccc(F)cc2)c(-c2ccc3ncccc3n2)s1 ) = 4.06

Lab note: N#Cc1c(NC(=O)c2ccc(F)cc2)sc2c1CCCC2 gave inhibition of 0.73

Documented inhibition of CNC(=O)c1cc(-c2ccc(F)cc2)cc(-c2ccc(S(=O)(=O)N3CCCC3)cc2)c1N : 8.16

Data point: CN1CCC(n2cnc(-c3ccc(F)cc3)c2-c2ccnc(Nc3ccccc3)n2)CC1 ; inhibition = 2.71

###

# measured.target: Platelet-derived growth factor receptor beta (Homo sapiens) (UniProt P09619);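 also: reported value is the mean percent inhibition of the kinase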
# Sequence (P09619 whole entry): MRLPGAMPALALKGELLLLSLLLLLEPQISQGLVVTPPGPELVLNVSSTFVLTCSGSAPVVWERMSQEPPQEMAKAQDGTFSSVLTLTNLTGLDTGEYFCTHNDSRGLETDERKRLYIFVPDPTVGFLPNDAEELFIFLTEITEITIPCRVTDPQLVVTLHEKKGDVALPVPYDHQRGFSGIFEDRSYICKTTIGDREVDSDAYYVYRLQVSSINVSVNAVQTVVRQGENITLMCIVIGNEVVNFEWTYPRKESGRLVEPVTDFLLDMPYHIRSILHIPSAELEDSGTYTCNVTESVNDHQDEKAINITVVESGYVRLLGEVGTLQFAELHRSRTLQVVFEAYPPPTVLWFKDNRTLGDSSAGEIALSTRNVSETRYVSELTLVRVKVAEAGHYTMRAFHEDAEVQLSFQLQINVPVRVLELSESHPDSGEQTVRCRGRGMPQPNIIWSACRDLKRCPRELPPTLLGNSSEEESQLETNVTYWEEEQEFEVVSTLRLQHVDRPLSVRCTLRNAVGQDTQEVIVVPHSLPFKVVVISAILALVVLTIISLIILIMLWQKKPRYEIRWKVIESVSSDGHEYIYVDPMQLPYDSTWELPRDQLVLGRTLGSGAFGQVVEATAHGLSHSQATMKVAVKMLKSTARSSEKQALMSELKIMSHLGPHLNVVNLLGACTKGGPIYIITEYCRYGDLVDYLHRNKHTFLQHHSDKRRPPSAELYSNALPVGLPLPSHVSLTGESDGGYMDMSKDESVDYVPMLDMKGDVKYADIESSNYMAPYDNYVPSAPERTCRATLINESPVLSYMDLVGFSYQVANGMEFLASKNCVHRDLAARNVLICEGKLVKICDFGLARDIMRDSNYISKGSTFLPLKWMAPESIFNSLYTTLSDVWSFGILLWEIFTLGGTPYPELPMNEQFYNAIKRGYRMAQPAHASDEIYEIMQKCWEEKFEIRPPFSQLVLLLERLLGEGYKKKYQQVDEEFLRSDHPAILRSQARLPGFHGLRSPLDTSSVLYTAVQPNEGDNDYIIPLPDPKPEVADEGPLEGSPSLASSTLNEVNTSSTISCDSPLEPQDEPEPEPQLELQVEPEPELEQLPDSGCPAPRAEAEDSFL
# measurement.setup: at 0.1 µM
Would you kindly list inhibition for each of these compounds?
Quick reminder: number only, in %, skip the unit.

Given the compound Cc1cccc2c1NC(=O)/C2=N\Nc1ccc(S(N)(=O)=O)cc1 and test system Platelet-derived growth factor receptor beta (Homo sapiens) (UniProt P09619), the measured inhibition is 2.52

Noted inhibition for COc1ccc(CNC(=O)c2ccc(-c3cc(-c4nnc(C)o4)ccc3C)cc2)cc1 , tested on Platelet-derived growth factor receptor beta (Homo sapiens) (UniProt P09619): 8.68

Fill in: Platelet-derived growth factor receptor beta (Homo sapiens) (UniProt P09619) inhibition for CNC(=O)c1cncc(/C=C/c2ccccc2Cl)c1 = 7.75

Entry CC(C)(CO)CNC(=O)c1ccc2c(c1)/C(=N/Nc1ccc(S(N)(=O)=O)cc1)C(=O)N2 ; assay system Platelet-derived growth factor receptor beta (Homo sapiens) (UniProt P09619); inhibition recorded at 38.7

inhibition for Platelet-derived growth factor receptor beta (Homo sapiens) (UniProt P09619) with input CS(=O)(=O)CCNCc1ccc(-c2ccc3ncnc(Nc4ccc(OCc5ccccc5)c(C(F)(F)F)c4)c3c2)o1 equals 1.55

Measured on Platelet-derived growth factor receptor beta (Homo sapiens) (UniProt P09619), [O-][S+]1CCN(Cc2ccc(-c3ccc4ncnc(Nc5ccc(OCc6cccc(F)c6)c(Cl)c5)c4c3)o2)CC1 has a documented inhibition of 4.69

With Platelet-derived growth factor receptor beta (Homo sapiens) (UniProt P09619) as the test system, CCOc1ccc2c(-c3ccnc(Nc4cccc(C(F)(F)F)c4)n3)cnn2n1 showed inhibition of 7.67

Reported inhibition (Platelet-derived growth factor receptor beta (Homo sapiens) (UniProt P09619)) for entry COc1ccc(-c2cc3c(N)ncnc3o2)cc1 is 1.93

Case COc1cccc(-c2c[nH]c3c(N/N=C/c4ccncc4)ncnc23)c1 , Platelet-derived growth factor receptor beta (Homo sapiens) (UniProt P09619), inhibition recorded as 55

Bench note, Platelet-derived growth factor receptor beta (Homo sapiens) (UniProt P09619): entry CC1=C(C(=O)Nc2cc(Cl)c3[nH]ncc3c2)C(c2ccc(C(F)(F)F)cc2)CC(=O)N1 (stereo not drawn) , its inhibition = 0.58

Form field, inhibition with Platelet-derived growth factor receptor beta (Homo sapiens) (UniProt P09619), item c1ccc(COc2ccc(Nc3ncnc4ccc(-c5ccco5)cc34)cc2)cc1 : -0.23

// returns inhibition for COc1ccc(-c2cc(-c3c[nH]nc3-c3ccccn3)ccn2)cc1 with Platelet-derived growth factor receptor beta (Homo sapiens) (UniProt P09619); value = 7.26

Summary line: Nc1ncc(-c2cccc(S(N)(=O)=O)c2)c2scc(-c3ccc(F)c(Cl)c3)c12 , Platelet-derived growth factor receptor beta (Homo sapiens) (UniProt P09619), reported inhibition = 14.8

Bench note, Platelet-derived growth factor receptor beta (Homo sapiens) (UniProt P09619): entry COc1cc(Nc2nccc(Nc3ccc4c(C)n[nH]c4c3)n2)cc(OC)c1OC , its inhibition = 74.4

Response field inhibition (Platelet-derived growth factor receptor beta (Homo sapiens) (UniProt P09619)) for item Nc1nc(-c2cccc(Cl)c2)c(-c2ccc3ncccc3n2)s1 : 5.64

Item Clc1ccc(-c2nn3ncccc3c2-c2ccnc(Nc3ccccc3)n2)cc1 was tested on Platelet-derived growth factor receptor beta (Homo sapiens) (UniProt P09619); the reported inhibition is 6.84

Value sought: inhibition, system Platelet-derived growth factor receptor beta (Homo sapiens) (UniProt P09619), item O=S(=O)(CCNCc1ccc(-c2ccc3ncnc(Nc4ccc(OCc5cccc(F)c5)c(Cl)c4)c3c2)o1)c1ccccc1 . Result: 5.51

Field inhibition (Platelet-derived growth factor receptor beta (Homo sapiens) (UniProt P09619)), entry N#Cc1c(NC(=O)CN2CCOCC2)sc2c1CCCC2 : 2.42

Lab note: compound Fc1ccc(-c2nn3ncccc3c2-c2ccnc(Nc3ccc4c(c3)OCCO4)n2)cc1 tested on Platelet-derived growth factor receptor beta (Homo sapiens) (UniProt P09619); recorded inhibition was 29.3

inhibition on Platelet-derived growth factor receptor beta (Homo sapiens) (UniProt P09619) for FC(F)(F)c1cccc(-c2nn3ncccc3c2-c2ccnc(Nc3ccc4c(c3)OCCO4)n2)c1 is 6.05

inhibition value, target or system Platelet-derived growth factor receptor beta (Homo sapiens) (UniProt P09619), for CNC(=O)c1cccc(C#Cc2cncnc2Nc2ccc(OCc3cccc(F)c3)c(Cl)c2)c1 : 4.41

Reported inhibition (Platelet-derived growth factor receptor beta (Homo sapiens) (UniProt P09619)) for entry Cc1ccc2c(-c3ccnc(Nc4ccccc4)n3)c(-c3ccc(F)cc3)nn2n1 is 22.5

Kindly note: Platelet-derived growth factor receptor beta (Homo sapiens) (UniProt P09619), c1ccc(-c2nc3n(c2-c2ccc4c(c2)OCO4)CCC3)nc1 , inhibition value reported: 3.66

Value sought: inhibition, system Platelet-derived growth factor receptor beta (Homo sapiens) (UniProt P09619), item CCN1CCC(CC(=O)Nc2n[nH]c3nnc(-c4cccc(F)c4F)cc23)CC1 . Result: -0.56

Summary: COC(=O)c1sc(-n2cnc3cc(OC)c(OC)cc32)cc1OCc1ccccc1C(F)(F)F , Platelet-derived growth factor receptor beta (Homo sapiens) (UniProt P09619), inhibition = 14.9

Measured on Platelet-derived growth factor receptor beta (Homo sapiens) (UniProt P09619), COc1cc(N2CCN(C(C)C)CC2)ccc1Nc1nc(Nc2ccc(F)cc2C(N)=O)c2cc[nH]c2n1 has a documented inhibition of 5.8

Lab entry: Platelet-derived growth factor receptor beta (Homo sapiens) (UniProt P09619) assay, compound NS(=O)(=O)c1ccc(N/N=C2\C(=O)Nc3ccc4ncccc4c32)cc1 , inhibition = 63.2

Field inhibition (Platelet-derived growth factor receptor beta (Homo sapiens) (UniProt P09619)), entry Nc1nc(-c2ccc(F)cc2)c(-c2ccc3ncccc3n2)s1 : 10.9

Reported Platelet-derived growth factor receptor beta (Homo sapiens) (UniProt P09619) inhibition for item Fc1ccc(-c2nn3ccccc3c2-c2ccncc2)cc1 was 0.58

Tested system Platelet-derived growth factor receptor beta (Homo sapiens) (UniProt P09619); inhibition recorded for COc1cccc(-n2ncc3c(N/N=C/c4ccc(F)cc4)ncnc32)c1 was 12.8

The reported inhibition value, Platelet-derived growth factor receptor beta (Homo sapiens) (UniProt P09619), for Cc1ccc(O)cc1Nc1ccnc2cc(-c3ccccn3)ccc12 reads 53.4

Noted inhibition for COC(=O)Nc1nc2ccc(Oc3ccc(NC(=O)Nc4cccc(Cl)c4)cc3)cc2[nH]1 , tested on Platelet-derived growth factor receptor beta (Homo sapiens) (UniProt P09619): 12.2

Param item: COc1ccc(-c2oc3ncnc(N)c3c2-c2ccc(NC(=O)Nc3cc(C(F)(F)F)ccc3F)cc2)cc1 ; param system: Platelet-derived growth factor receptor beta (Homo sapiens) (UniProt P09619); output inhibition: 20.2
